Assign IC50 to each entry below.
target: recombinant rat PIM-3 (Rattus norvegicus); assay: PIM-3 Assay (as Example A); details: averaged IC50; 30 μM ATP, 3.75 μM PIM2tide, 0.5 nM PIM-3
Structures can show the parent of a compound that is named as a salt.
Please reply with the bare figure in nM and do not write the unit itself.

The molecule CCC1(N)CCN([C@@H](c2ccc3nnc(-c4ccc5cccc(OC)c5n4)n3c2)C(F)(F)F)C1 (single isomer, unassigned; diastereomer 2) [Example 244, dihydrochloride] , tested on recombinant rat PIM-3 (Rattus norvegicus), showed IC50 of 1

The observed IC50 for N[C@H]1CCN([C@H](c2ccc3nnc(-c4ccc5cc(F)c(OC(F)F)cc5n4)n3c2)C(F)(F)F)C1 [Example 215, dihydrochloride] when tested with recombinant rat PIM-3 (Rattus norvegicus) stands at 3.1

Noted IC50 for COc1cccc2ccc(-c3nnc4ccc([C@@H](N5CC[C@](N)(CF)C5)C(F)(F)F)cn34)nc12 (single isomer, unassigned) [Example 170] , tested on recombinant rat PIM-3 (Rattus norvegicus): 6.2

# lookup: Cc1nn(C)cc1-c1cc2nc(-c3nnc4ccc([C@@H](N5CC[C@H](N)C5)C(F)(F)F)cn34)ccc2cc1F [Example 205, dihydrochloride] on recombinant rat PIM-3 (Rattus norvegicus), IC50 = 0.2

The observed IC50 for COC[C@@H](C)Oc1cccc2ccc(-c3nnc4ccc([C@@H](N5CC[C@H](N)C5)C(F)(F)F)cn34)nc12 [Example 140, dihydrochloride] when tested with recombinant rat PIM-3 (Rattus norvegicus) stands at 0.5

Measured IC50 (recombinant rat PIM-3 (Rattus norvegicus)), entry CC(C)(C)c1cccc2ccc(-c3nnc4ccc([C@H](N5CC[C@@H](O)C5)C(F)(F)F)cn34)nc12 [Example 104] : 12

The molecule COc1ccc2ccc(-c3nnc4ccc([C@@H](N5CC[C@H](N)C5)C(F)(F)F)cn34)nc2c1Cl [Example 175, hydrochloride] , when measured on recombinant rat PIM-3 (Rattus norvegicus), yielded IC50 of 1.4

Simply: CC(C)Oc1c(C#N)ccc2ccc(-c3nnc4ccc([C@@H](N5CC[C@H](N)C5)C(F)(F)F)cn34)nc12 [Example 75, dihydrochloride] , recombinant rat PIM-3 (Rattus norvegicus), IC50 = 18

The observed IC50 for CC(C)(CCO)c1cccc2ccc(-c3nnc4ccc([C@@H](N5CC[C@H](N)C5)C(F)(F)F)cn34)nc12 [Example 224, dihydrochloride] when tested with recombinant rat PIM-3 (Rattus norvegicus) stands at 0.7

Tested on recombinant rat PIM-3 (Rattus norvegicus): COC[C@@H](C)Oc1cccc2ccc(-c3nnc4ccc([C@@H](N5CC[C@H](N(C)C)C5)C(F)(F)F)cn34)nc12 [Example 303, dihydrochloride] . Observed IC50: 5.85

Entry COc1cccc2ccc(-c3nnc4ccc([C@@H](N5CC[C@@](C)(N)C5)C(F)(F)F)cn34)nc12 [Example 240, dihydrochloride] , tested on recombinant rat PIM-3 (Rattus norvegicus), has a reported IC50 of 18

Lab entry: recombinant rat PIM-3 (Rattus norvegicus) assay, molecule N#Cc1cccc2ccc(-c3nnc4ccc([C@@H](N5C[C@@H]6C[C@H]5CN6)C(F)(F)F)cn34)nc12 [Example 89, dihydrochloride] , IC50 = 14

Kindly note: recombinant rat PIM-3 (Rattus norvegicus), CC(C)Oc1cccc2ccc(-c3nnc4ccc([C@@H](N5CC[C@@](C)(N)C5)C(F)(F)F)cn34)nc12 [Example 91, dihydrochloride] , IC50 value reported: 2.6

// molecule Cc1cc(OC(C)C)c2nc(-c3nnc4ccc([C@@H](N5CC[C@H](N)C5)C(F)(F)F)cn34)ccc2c1 [Example 128, hydrochloride] , assay recombinant rat PIM-3 (Rattus norvegicus), IC50 value: 0.7

The reported IC50 value, recombinant rat PIM-3 (Rattus norvegicus), for Cn1cc(-c2ccc3ccc(-c4nnc5ccc([C@@H](N6CC[C@H](N)C6)C(F)(F)F)cn45)nc3c2)cn1 (single isomer, unassigned) [Example 15, tri-hydrochloride] reads 0.3

# lookup: N[C@H]1CCN([C@H](c2ccc3nnc(-c4ccc5cc(F)cc(O)c5n4)n3c2)C(F)(F)F)C1 [Example 163, hydrochloride] on recombinant rat PIM-3 (Rattus norvegicus), IC50 = 10

Noted IC50 for CCOc1cc2nc(-c3nnc4ccc([C@@H](N5CCC(N)(CC)C5)C(F)(F)F)cn34)ccc2cc1F (single isomer, unassigned; diastereomer 1) [Example 243, dihydrochloride] , tested on recombinant rat PIM-3 (Rattus norvegicus): 2.1

Entry COc1cc(F)cc2ccc(-c3nnc4ccc([C@H](N5CC[C@](C)(N)C5)C(F)(F)F)cn34)nc12 [Example 218] , recombinant rat PIM-3 (Rattus norvegicus) data, IC50 value: 0.4

Case N[C@H]1CCN([C@H](c2ccc3nnc(-c4ccc5cc(F)cc(OCCCO)c5n4)n3c2)C(F)(F)F)C1 [Example 229, dihydrochloride] , recombinant rat PIM-3 (Rattus norvegicus), IC50 recorded as 0.3

Response field IC50 (recombinant rat PIM-3 (Rattus norvegicus)) for item CCOc1ccc2ccc(-c3nnc4ccc([C@H](N5CC[C@](C)(N)C5)C(F)(F)F)cn34)nc2c1 [Example 262, dihydrochloride] : 0.4

The observed IC50 for COc1cccc2ccc(-c3nnc4ccc([C@@H](N5CC[C@](C)(N)C5)C(F)(F)F)cn34)nc12 [Example 246, dihydrochloride] when tested with recombinant rat PIM-3 (Rattus norvegicus) stands at 15

Bench note, recombinant rat PIM-3 (Rattus norvegicus): entry C[C@H](CO)Oc1cccc2ccc(-c3nnc4ccc([C@@H](N5CC[C@H](N)C5)C(F)(F)F)cn34)nc12 [Example 186, dihydrochloride] , its IC50 = 0.4

So the reported IC50 for COCCOc1cc2nc(-c3nnc4ccc([C@@H](N5CC[C@H](N)C5)C(F)(F)F)cn34)ccc2cc1F [Example 120, hydrochloride] , on recombinant rat PIM-3 (Rattus norvegicus), turned out to be 3

Hey, recombinant rat PIM-3 (Rattus norvegicus) data for COc1cc(C)cc2ccc(-c3nnc4ccc([C@@H](N5CC[C@H](N)C5)C(F)(F)F)cn34)nc12 [Example 127, hydrochloride] : IC50 came out at 11
